These entries and their values trace back to paper PMC8162404.

# tested-target: Gal-1 (Homo sapiens)
# Construct: made in house; host or cells: E. coli BL21(DE3)
# Sequence (P09382 whole entry): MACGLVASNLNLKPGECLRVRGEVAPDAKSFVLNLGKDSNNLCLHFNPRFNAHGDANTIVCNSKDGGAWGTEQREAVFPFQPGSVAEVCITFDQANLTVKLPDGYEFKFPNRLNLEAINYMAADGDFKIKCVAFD
# procedure-details: Pull-down assay with immobilized protein and LSM libraries
# Assay type: binding
# condition-label: H14 library; 1:1 binding assumed; read-out: Surface mapping KD (apparent)
Overview of reported pKd across a group of molecules:
Would you please state pKd, meaning minus log10 of the concentration in mol/L, as a bare number?

// solved cases for pKd follow
[[record]]
smiles_text = "NC(=O)C[C@@H](CC(=O)N[C@H]1CCCC[C@@H]1C(N)=O)NC(=O)[C@H]1CCCC[C@@H]1NC(=O)[C@H]1CCCC[C@@H]1NC(=O)C[C@H](CC(N)=O)NC(=O)[C@H]1CCCC[C@@H]1N"
quantitative_readout = 3.61

[[record]]
smiles_text = "CC(C)C[C@@H](CC(=O)N[C@H]1CCCC[C@@H]1C(N)=O)NC(=O)[C@H]1CCCC[C@@H]1NC(=O)[C@H]1CCCC[C@@H]1NC(=O)C[C@H](CO)NC(=O)[C@H]1CCCC[C@@H]1N"
quantitative_readout = 3.60


# pKd lookup, item C[C@@H](O)[C@@H](CC(=O)N[C@H]1CCCC[C@@H]1C(=O)N[C@H]1CCCC[C@@H]1C(=O)N[C@H](CC(=O)N[C@H]1CCCC[C@@H]1C(N)=O)Cc1ccccc1)NC(=O)[C@H]1CCCC[C@@H]1N
3.85
